Test: Solubility in selected aqueous solutions
Format: physicochemical
Settings: aqueous with cosolvent or surfactant or cyclodextrin; No. 6: Saline/DMSO/solutol HS-15 85/5/10; pH 7.4, 25 °C
Measured Attribute: solubility

Which solubility is reported for this molecule? C[C@H]1CCC/C=C/[C@@H]2C[C@H](O)C[C@H]2[C@H](OC(=O)/C=C/c2cccnc2)/C=C/C(=O)O1 [CHNQD-01281]
12 to 15 mg/mL

---

Test system: SW-480 cells
Assay: MTT cell proliferation assay
Format: cell-based, human
Settings: Homo sapiens, SW480; SW-480, MTT, 72 h
Measured Attribute: IC50 (µM)
Give bare numbers, in µM.

Which IC50 is reported for this compound? "C[C@H]1CCC/C=C/[C@@H]2C[C@H](O)C[C@H]2[C@H](OC(=O)/C=C/c2cccnc2)/C=C/C(=O)O1"
0.73

Values from paper PMC11358582
